Test system: Herpes virus
assayProtocol: Herpes virus in chicken eggs, single dose 24 hours pre-infection
Assay type: in vivo, chick embryo
settings: .0005 μg
Reported Total deaths, 4th day values are given for each entry in this list.

{"compound": "NNC(N)=S [Thiosemicarbazide, thiosemicarbazide]", "targetUnderTest": "Herpes virus", "Total deaths, 4th day": 10}
{"compound": "NNC(N)=O [semicarbazide]", "targetUnderTest": "Herpes virus", "Total deaths, 4th day": 11}
{"compound": "CCC(C)=NNC(N)=S [2-Butanone, thiosemicarbazone, 2-butanone, thiosemicarbazone]", "targetUnderTest": "Herpes virus", "Total deaths, 4th day": 10}
{"compound": "NN [hydrazine]", "targetUnderTest": "Herpes virus", "Total deaths, 4th day": 12}

----------
Test system: Vaccinia IHD virus
Format: in vivo, mouse
settings: 1 μg, day 21
Structures can show the parent of a compound that is named as a salt.
experimentalEndpoint: Statistical Significance of Tail Lesions

{"compound": "NNC(N)=S [Thiosemicarbazide, thiosemicarbazide]", "targetUnderTest": "Vaccinia IHD virus", "experimentalEndpoint": "Statistical Significance of Tail Lesions", "experimentalValue": "< .01"}
{"compound": "NNC(N)=O [semicarbazide, hydrochloride]", "targetUnderTest": "Vaccinia IHD virus", "experimentalEndpoint": "Statistical Significance of Tail Lesions", "experimentalValue": "< .05"}
{"compound": "CCC(C)=NNC(N)=S", "targetUnderTest": "Vaccinia IHD virus", "experimentalEndpoint": "Statistical Significance of Tail Lesions", "experimentalValue": "< .01"}
{"compound": "NN [hydrazine]", "targetUnderTest": "Vaccinia IHD virus", "experimentalEndpoint": "Statistical Significance of Tail Lesions", "experimentalValue": "< .01"}

----------
Reported No. animals surviving after 5-7 days values are given for each entry in this list.
Tested on: Influenza, Ann Arbor virus
assayProtocol: Influenza Ann Arbor in mice, oral; schedule by table; late read day 5 (Tables 15, 25, 29, 30), 6 (18, 20, 22, 23, 26, 27, 28, 54), 7 (14, 19, 21, 24, 53, 56), 8 (16, 17, 51), 9 (11, 55)
Assay type: in vivo, mouse
settings: total dose 300 pg
Structures can show the parent of a compound that is named as a salt.
experimentalEndpoint: No. animals surviving after 5-7 days

{"compound": "CC(C)=NNC(N)=S", "experimentalValue": 2}
{"compound": "CNN [Methylhydrazine, methylhydrazine]", "experimentalValue": 3}
{"compound": "NC(N)=NN=Cc1c(Cl)cccc1Cl", "experimentalValue": 2}
{"compound": "CN(C)N [1,1-dimethylhydrazine]", "experimentalValue": 3}
{"compound": "CCCC(C)=NNC(N)=S", "experimentalValue": 2}
{"compound": "N=C(N)NN", "experimentalValue": 6}
{"compound": "C=CCNC(=S)NN=C1Cc2ccccc2C1", "experimentalValue": 7}
{"compound": "CNNC [1,2-dimethylhydrazine, dihydrochloride]", "experimentalValue": 2}
{"compound": "NC(N)=S", "experimentalValue": 4}
{"compound": "CCOC(=O)CC(C)=NNC(N)=S", "experimentalValue": 4}
{"compound": "Cc1ccccc1NC(=S)NN=C1CCCC1", "experimentalValue": 9}
{"compound": "NC(=S)NN=C1Cc2ccccc2C1", "experimentalValue": 8}
{"compound": "CCC(CC)=NNC(N)=S", "experimentalValue": 1}

----------
Reported No. dying 5-22 day values are given for each entry in this list.
System: Herpes virus
assayProtocol: Herpes virus in chicken eggs, single dose 24 hours pre-infection
Type: in vivo, chick embryo
settings: .05 μg

{"compound": "NNC(N)=S [Thiosemicarbazide, thiosemicarbazide]", "No. dying 5-22 day": 0}
{"compound": "NN [hydrazine]", "No. dying 5-22 day": 0}
{"compound": "NNC(N)=O [semicarbazide]", "No. dying 5-22 day": 0}
{"compound": "CCC(C)=NNC(N)=S [2-Butanone, thiosemicarbazone, 2-butanone, thiosemicarbazone]", "No. dying 5-22 day": 1}

----------
Test system: Herpes virus
assayProtocol: Herpes virus in chicken eggs, single dose 24 hours pre-infection
Assay type: in vivo, chick embryo
settings: .5 μg
experimentalEndpoint: Deaths on day 3

{"compound": "NNC(N)=S [Thiosemicarbazide, thiosemicarbazide]", "targetUnderTest": "Herpes virus", "experimentalValue": 2}
{"compound": "NN [hydrazine]", "targetUnderTest": "Herpes virus", "experimentalValue": 5}
{"compound": "CCC(C)=NNC(N)=S", "targetUnderTest": "Herpes virus", "experimentalValue": 6}
{"compound": "NNC(N)=O [semicarbazide]", "targetUnderTest": "Herpes virus", "experimentalValue": 5}

----------
Test system: Herpes virus
assayProtocol: Herpes virus in chicken eggs, single dose 24 hours pre-infection
Assay type: in vivo, chick embryo
settings: 20 μg

{"compound": "NN [hydrazine]", "No. dying 5-22 day": 0}
{"compound": "NNC(N)=O [semicarbazide]", "No. dying 5-22 day": 0}
{"compound": "CCC(C)=NNC(N)=S", "No. dying 5-22 day": 1}
{"compound": "NNC(N)=S [Thiosemicarbazide, thiosemicarbazide]", "No. dying 5-22 day": 0}

----------
Test system: Influenza, Ann Arbor virus
assayProtocol: Influenza Ann Arbor in mice, oral; schedule by table; late read day 5 (Tables 15, 25, 29, 30), 6 (18, 20, 22, 23, 26, 27, 28, 54), 7 (14, 19, 21, 24, 53, 56), 8 (16, 17, 51), 9 (11, 55)
Format: in vivo, mouse
settings: total dose 30 pg
Counter-ions that a name gives are not always drawn.
Reported Survivors values are given for each entry in this list.
experimentalEndpoint: Survivors

{"compound": "C=CCNC(=S)NN=C1Cc2ccccc2C1", "experimentalEndpoint": "Survivors", "experimentalValue": 0}
{"compound": "Cc1ccccc1NC(=S)NN=C1CCCC1", "experimentalEndpoint": "Survivors", "experimentalValue": 0}
{"compound": "CCOC(=O)CC(C)=NNC(N)=S", "experimentalEndpoint": "Survivors", "experimentalValue": 0}
{"compound": "CCC(CC)=NNC(N)=S", "experimentalEndpoint": "Survivors", "experimentalValue": 0}
{"compound": "CCCC(C)=NNC(N)=S", "experimentalEndpoint": "Survivors", "experimentalValue": 0}
{"compound": "NC(N)=NN=Cc1c(Cl)cccc1Cl", "experimentalEndpoint": "Survivors", "experimentalValue": 0}
{"compound": "CC(C)=NNC(N)=S", "experimentalEndpoint": "Survivors", "experimentalValue": 1}
{"compound": "CNN [Methylhydrazine, methylhydrazine]", "experimentalEndpoint": "Survivors", "experimentalValue": 1}
{"compound": "CNNC [1,2-dimethylhydrazine, dihydrochloride]", "experimentalEndpoint": "Survivors", "experimentalValue": 1}
{"compound": "CN(C)N [1,1-dimethylhydrazine]", "experimentalEndpoint": "Survivors", "experimentalValue": 0}
{"compound": "NC(=S)NN=C1Cc2ccccc2C1", "experimentalEndpoint": "Survivors", "experimentalValue": 1}
{"compound": "NC(N)=S", "experimentalEndpoint": "Survivors", "experimentalValue": 0}

----------
Test system: Influenza, Ann Arbor virus
assayProtocol: Influenza Ann Arbor in mice, oral; schedule by table; late read day 5 (Tables 15, 25, 29, 30), 6 (18, 20, 22, 23, 26, 27, 28, 54), 7 (14, 19, 21, 24, 53, 56), 8 (16, 17, 51), 9 (11, 55)
Format: in vivo, mouse
settings: total dose 3 ng
Counter-ions that a name gives are not always drawn.

{"molecule": "CN(C)N [1,1-dimethylhydrazine]", "Survivors": 1}
{"molecule": "C=CCNC(=S)NN=C1Cc2ccccc2C1", "Survivors": 0}
{"molecule": "Cc1ccccc1NC(=S)NN=C1CCCC1", "Survivors": 0}
{"molecule": "NC(=S)NN=C1Cc2ccccc2C1", "Survivors": 0}
{"molecule": "CCC(C)=NNC(=N)N.O=[N+]([O-])O [1-(sec-butylideneamino)guanidine nitrate]", "Survivors": 0}
{"molecule": "NC(N)=NN=Cc1c(Cl)cccc1Cl", "Survivors": 0}
{"molecule": "NC(N)=S", "Survivors": 1}
{"molecule": "CC(C)=NNC(N)=S", "Survivors": 0}
{"molecule": "N=C(N)NN", "Survivors": 1}
{"molecule": "CNNC [1,2-dimethylhydrazine, dihydrochloride]", "Survivors": 0}
{"molecule": "CCCC(C)=NNC(N)=S", "Survivors": 0}

----------
Test system: Vaccinia IHD virus
Format: in vivo, mouse
settings: 10 [μg], day 10
Structures can show the parent of a compound that is named as a salt.

{"compound": "NNC(N)=O [semicarbazide, hydrochloride]", "targetUnderTest": "Vaccinia IHD virus", "Statistical Significance of Tail Lesions": "< .05"}
{"compound": "NN [hydrazine]", "targetUnderTest": "Vaccinia IHD virus", "Statistical Significance of Tail Lesions": "< .05"}
{"compound": "CCC(C)=NNC(N)=S", "targetUnderTest": "Vaccinia IHD virus", "Statistical Significance of Tail Lesions": "< .01"}
{"compound": "NNC(N)=S [Thiosemicarbazide, thiosemicarbazide]", "targetUnderTest": "Vaccinia IHD virus", "Statistical Significance of Tail Lesions": "< .05"}
